The following sequences are listed with their measured PBM E-score values.
# Experimental Target: Ecm22 (UniProt Q05958)
# Sequence: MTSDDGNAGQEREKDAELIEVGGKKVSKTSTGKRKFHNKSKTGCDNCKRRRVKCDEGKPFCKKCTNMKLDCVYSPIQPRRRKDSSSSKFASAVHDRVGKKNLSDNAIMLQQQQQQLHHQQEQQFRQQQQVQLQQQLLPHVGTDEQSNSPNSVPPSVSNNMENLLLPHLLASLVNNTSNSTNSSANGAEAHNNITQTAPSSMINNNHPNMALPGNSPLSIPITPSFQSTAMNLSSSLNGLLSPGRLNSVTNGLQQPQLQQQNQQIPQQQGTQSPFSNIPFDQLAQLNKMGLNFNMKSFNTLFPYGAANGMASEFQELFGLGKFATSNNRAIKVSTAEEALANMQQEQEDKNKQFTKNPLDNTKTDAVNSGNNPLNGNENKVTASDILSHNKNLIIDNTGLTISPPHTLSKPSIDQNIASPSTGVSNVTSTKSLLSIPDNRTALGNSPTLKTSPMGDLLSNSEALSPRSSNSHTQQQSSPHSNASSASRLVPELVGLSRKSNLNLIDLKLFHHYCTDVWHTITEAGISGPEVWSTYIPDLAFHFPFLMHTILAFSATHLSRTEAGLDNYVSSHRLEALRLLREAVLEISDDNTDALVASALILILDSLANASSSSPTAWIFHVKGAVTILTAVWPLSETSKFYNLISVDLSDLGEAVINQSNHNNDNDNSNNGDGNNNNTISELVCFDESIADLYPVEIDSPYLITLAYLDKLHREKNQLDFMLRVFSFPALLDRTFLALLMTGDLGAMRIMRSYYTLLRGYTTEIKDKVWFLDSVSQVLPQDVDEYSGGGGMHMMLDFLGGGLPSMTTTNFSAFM
# Test Protocol: PBM E-score (8-mer binding enrichment) (E-score (-0.5 to 0.5)); higher = stronger / more preferred TF binding
# Measurement Context: protein concentration: 200 nM; construct: GST-full length
In all, about 33,000 sequences were measured (“E-score (-0.5 to 0.5)”: median about -0.041, highest 2% from about 0.37 on). Many of the other results were omitted from the sample, so the highest values are more common in it than they were.
Answer with a number only.

# Macromolecule Sequence, PBM E-score
data = [
    ("AGCCGGAA", -0.0725),
]

The value of PBM E-score measured for the sequence AAGTACGA turned out to be 0.448

The value of PBM E-score measured for the sequence ACGACGGA turned out to be 0.388

The value of PBM E-score measured for the sequence AGGACGGG turned out to be -0.147

The value of PBM E-score measured for the sequence CGTATGAG turned out to be 0.354

The value of PBM E-score measured for the sequence ATACGGTC turned out to be 0.383

The value of PBM E-score measured for the sequence GCTCAGGA turned out to be -0.107

The value of PBM E-score measured for the sequence ATCGTTCA turned out to be 0.402

The value of PBM E-score measured for the sequence GGTATGAC turned out to be -0.125

The value of PBM E-score measured for the sequence AAACGGTA turned out to be 0.287

The value of PBM E-score measured for the sequence AGGATCCT turned out to be 0.134

The value of PBM E-score measured for the sequence AAATCGTC turned out to be 0.127

The value of PBM E-score measured for the sequence AGTGTACA turned out to be -0.0734

The value of PBM E-score measured for the sequence CGAGTCAC turned out to be 0.106

The value of PBM E-score measured for the sequence AAACGGCG turned out to be 0.391

The value of PBM E-score measured for the sequence ACGCAAGG turned out to be -0.01

The value of PBM E-score measured for the sequence CGAAGGCG turned out to be 0.124

The value of PBM E-score measured for the sequence CAGTACGA turned out to be 0.423

The value of PBM E-score measured for the sequence AAGCTCAG turned out to be -0.321

The value of PBM E-score measured for the sequence GCATACGA turned out to be 0.446

The value of PBM E-score measured for the sequence TAGTACCA turned out to be -0.124

The value of PBM E-score measured for the sequence ACGACAGG turned out to be 0.339

The value of PBM E-score measured for the sequence ACGACGGC turned out to be 0.37

The value of PBM E-score measured for the sequence ATGACGGC turned out to be -0.236

The value of PBM E-score measured for the sequence GTCGTTTA turned out to be 0.491

The value of PBM E-score measured for the sequence ATGACGGG turned out to be -0.125

The value of PBM E-score measured for the sequence CAATCGTA turned out to be 0.389
